- System: HOP-92
- ASSAY_NAME: NCI tumour cell line growth inhibition, 48 h
Activity calls are given as the source filed them. No stated cut-off is given here; in the data, active = GI50 up to about 1.1 µM and inactive = higher.
List of GI50 values.

Worked set:
{"columns": ["MOLECULE", "GI50"],
 "data": [
  ["Nc1ccc(O)c2c1C(=O)c1c(N)ccc(O)c1C2=O", "> 100 µM (inactive)"],
  ["c1coc(C2=Nc3cccc4cccc(c34)N2)c1", "25.5 µM (inactive)"],
  ["Cc1ccc(C(CCO)CCO)nc1", "> 100 µM (inactive)"]
]}

Lookup result for CC1(C)OC(=S)N(c2ccccc2)C12C=Cc1ccccc1O2 (stereo unspecified) ; measured GI50: 88.3 µM (inactive)

Lookup result for CC/C=C\C/C=C\C1CC(=O)NCCCNCCCCN1 (stereo unspecified) ; measured GI50: > 100 µM (inactive)

Lookup result for CCCCCCCCCCCCCC(=O)O.O=CC(O)C(O)C(OC1OC(CO)C(O)C(O)C1O)C(O)CO (stereo unspecified) ; measured GI50: 48.3 µM (inactive)

====

- Tested on: ACHN
- ASSAY_NAME: NCI tumour cell line growth inhibition, 48 h
Activity calls are given as the source filed them. No stated cut-off is given here; in the data, active = GI50 up to about 1.1 µM and inactive = higher.
ATTRIBUTE_MEASURED: GI50

{"columns": ["MOLECULE", "GI50"],
 "data": [
  ["Cc1ccc(NNc2cc(=O)[nH]c(=O)[nH]2)cc1Cl", "9.42 µM (inactive)"],
  ["CCOC1c2cc(C(C)C)c(O)c(O)c2[C@@]23CCCC(C)(C)C2C1OC3=O (some centres not stated)", "78 µM (inactive)"]
]}

Lookup result for COP(=O)(OC)C(N)CCSC (configuration not stated) ; measured GI50: > 100 µM (inactive)

Lookup result for CC(=O)C1=NN(c2ccccc2)C2(S1)SC(c1ccccc1)(c1ccccc1)c1ccccc12 (configuration not stated) ; measured GI50: 42.3 µM (inactive)

Lookup result for O=S1(=O)CS(=O)(=O)OCCCO1 ; measured GI50: 52.1 µM (inactive)

Lookup result for Cc1cc(C(F)(F)F)cc(-n2nc(NS(=O)(=O)c3cc(C)c(Cl)cc3S)nc2N)n1 ; measured GI50: 53.3 µM (inactive)

Lookup result for c1cnc2c(c1)-n1cccc1C1(CCSCC1)NN2 ; measured GI50: > 100 µM (inactive)

Lookup result for C=CC/N=C1\N=C(C)C(C(=O)OCC)S1 (configuration not stated) ; measured GI50: > 100 µM (inactive)

Lookup result for CC(=O)OCCOc1cc2c([nH]c3ccccc32)c(C)c2cccc1-2 ; measured GI50: 1.75 µM (inactive)

Lookup result for COc1ccccc1-n1c(C)nc2ccccc2c1=O ; measured GI50: > 100 µM (inactive)

Lookup result for O=C1OC(CS(=O)(=O)c2ccccc2)CC1O (configuration not stated) ; measured GI50: > 100 µM (inactive)

Lookup result for C/C(=N\NC(N)=S)c1ccc(C)c(C)c1 ; measured GI50: 59.2 µM (inactive)

====

- Test system: RPMI-8226
- ASSAY_NAME: NCI tumour cell line growth inhibition, 48 h
The source made the active and inactive calls. No stated cut-off is given here; in the data, active = GI50 up to about 1.1 µM and inactive = higher.
ATTRIBUTE_MEASURED: GI50

{"columns": ["MOLECULE", "GI50"],
 "data": [
  ["Cc1nn(C(=O)c2ccccc2O)c2c1C(c1ccc([N+](=O)[O-])cc1)SC(=N)N2 (stereo unspecified)", "> 7.03 µM (inactive)"],
  ["Cc1ccc(C(CCO)CCO)nc1", "> 100 µM (inactive)"],
  ["Cc1n[nH]c(=O)n1/N=C/c1ccco1", "> 100 µM (inactive)"],
  ["CN1CCCN2CCN(C)CCCN(CC1)CC2", "> 100 µM (inactive)"]
]}

Lookup result for Cc1c(Cl)ccc2c1NC(=O)C2(O)C(C(=O)c1ccccc1)c1ccccc1 (stereo unspecified) ; measured GI50: 25.9 µM (inactive)

Lookup result for Cc1ccc(/C=C2\CN(C)CC3C(c4ccc(C)cc4)=C(C#N)C(=O)NC23)cc1 (stereo unspecified) ; measured GI50: > 50 µM (inactive)
